tested on: Phakopsora pachyrhizi (F129L); experiment: Protective control of soybean rust on soybeans (PHAKPA P2); assay type: in vivo; conditions: protective P2, 16 ppm, soybean rust F129L
Quantity name: % PHAKPA (F129L) Disease level P2 at 16 ppm (%)

> print(dat)
                      smiles.representation  unit.spec  result.value
1  CO/N=C(/C(=O)OC)c1cccc(C)c1CO/N=C(\C)c1cc(C2CC2)cc(C(F)(F)F)c1          %             8
2  CNC(=O)/C(=N/OC)c1cccc(C)c1CO/N=C(\C)c1cccc(-c2cc(C)on2)c1          %            23
3  CNC(=O)/C(=N/OC)c1cccc(C)c1CO/N=C(\C)c1cccc(-c2ccccc2)c1          %             0
4  CO/N=C(/C(=O)OC)c1cccc(C)c1CO/N=C(\C)c1ccc(-c2cc(C)on2)cc1          %            77

---

tested on: Phakopsora pachyrhizi (F129L); assay: Protective control of soybean rust on soybeans (PHAKPA P6); format: in vivo; conditions: protective P6, 4 ppm, soybean rust F129L
We use 40% as the dividing line for % PHAKPA (F129L) Disease level P6 at 4 ppm: on or above the line is Met, below is Not met.

> print(dat)
                      smiles.representation                         target  class.label
1  CNC(=O)/C(=N/OC)c1cccc(C)c1CO/N=C(\C)c1ccc(C)c(Cl)c1  Phakopsora pachyrhizi (F129L)      Not met
2  CO/N=C(/C(=O)OC)c1cccc(C)c1CO/N=C(\C)c1c(F)cc(Br)cc1C(F)(F)F  Phakopsora pachyrhizi (F129L)          Met
3  CNC(=O)/C(=N/OC)c1cccc(C)c1CO/N=C(\CC(F)(F)F)c1ccccc1C  Phakopsora pachyrhizi (F129L)          Met
4  CO/C=C(/C(=O)OC)c1cccc(C)c1CO/N=C(\C)c1ccc(Br)cc1C(F)(F)F  Phakopsora pachyrhizi (F129L)      Not met
5  CC/C(=N\OCc1c(C)cccc1/C(=N\OC)C(=O)NC)c1ccccc1C(F)(F)F  Phakopsora pachyrhizi (F129L)          Met
6  CNC(=O)/C(=N/OC)c1cccc(C)c1CO/N=C(\C)c1cc(C(F)(F)F)ccc1F  Phakopsora pachyrhizi (F129L)      Not met

---

system: Phakopsora pachyrhizi (F129L); assay: Protective control of soybean rust on soybeans (PHAKPA P2); type: in vivo; settings: protective P2, 16 ppm, soybean rust F129L
Quantity name: % PHAKPA (F129L) Disease level P2 at 16 ppm (%)

> print(dat)
                      smiles.representation  result.value
1  CO/N=C(/C(=O)OC)c1cccc(C)c1CO/N=C(/c1cccc(C(F)(F)F)c1)C(C)C            67
2  C#Cc1cc(F)ccc1/C(C)=N/OCc1c(C)cccc1/C(=N\OC)C(=O)NC            15
3  C#Cc1ccccc1/C(C)=N/OCc1c(C)cccc1/C(=N\OC)C(=O)NC             9
4  CO/N=C(/C(=O)OC)c1cccc(C)c1CO/N=C(\CC1CC1)c1cccc(C(F)(F)F)c1            37
